- Test protocol: folding stability dG unfold from chymotrypsin proteolysis; higher = more stable
Measured folding stability dG unfold accompanies every entry in the list below.
Give a bare numeral; the unit kcal/mol is implied.

# Sequence record, folding stability dG unfold [kcal/mol]
rows = [
    ("SAGAHTVSVHYVEPGSKKLSSVETSEITLEPGEELPLDEVAARFPSENYEVTAQEEPDAITITIYVYRGSAG [r5_269_JUSTAS]", 0.522),
    ("SAGGSAGGSAGGSSSSSITTEERPVDEDSVEKTFKFPDYYVVETLDPRTGRTSVSFIPVSAGGSAGGSAGGS [r4_99_JUSTAS]", 0.249),
    ("SAGGSAGGSAGGMTPEEKIEALIKATPPLTVKTSGPGVSYEVEDLEKLKKLNVTISSVLGSAGGSAGGSAGG [r7_504_JUSTAS]", -0.683),
]

folding stability dG unfold for SVDPAKEKVVLRFTVTFPVPPELGPITADELAALVREILEAFGYEIVSVTVTVEGDRVTVTVEAVFDKRGSA [r9_1134_TrMRF] ?
5.21

---

- Test protocol: folding stability dG unfold (combined trypsin and chymotrypsin); higher = more stable
Quantity: folding stability dG unfold (kcal/mol)
Respond numerically; units are kcal/mol and should not be typed.

Guide cases for folding stability dG unfold, answers given:
# Sequence record, Measurement unit, Assay value
rows = [
    ("SAGGFRIERDGDYLRIEIRVNDPPGQPVEEAKNIMKQLFGFKDIKVDEIEPNPNGQAEIEIEIPFPKSAGGS [r16_234_TrROS]", "kcal/mol", 0.393),
    ("SAGMTIEELRSLPPGARVTSVEYDEETEEVTVTVERTREDGKTETLTLTFRSREELEAALKAGADRIVFSAG [r5_905_TrROS_Hall]", "kcal/mol", 1.54),
    ("SAGGKPKKTILIPLIVPPGKPESAIKALAEFLEAKGYELERIEPVPVGDRLRLVAIFRKPDGTEIKVGSAGG [r13_421_TrMRF]", "kcal/mol", 1.78),
    ("SAGGSAGIEVHPEGTVRIEVGGRSLTVTPADAVDVTQEGDKIVVTITRRDADGTPVGTLPVTVELASAGGSA [r15_424_JUSTAS]", "kcal/mol", 0.52),
    ("SAGGSMKVKIEVEKTPKGYKVRITVEKDGKTYEFEFPEDMSLEEVLEKLKKELEKEGVEIEKIEIVSAGGSA [r2_497_TrROS_Hall]", "kcal/mol", 4.43),
]

Which measured folding stability dG unfold value corresponds to SAGGMNIVTYTLTIPPGRIEEVKEAIEALGIPVVKVELVEVLPGEGLAIVKIEVPNNVDPEKVKKALSSAGG [r13_725_JUSTAS] ?
4.09

Recorded folding stability dG unfold of SAGGSAGGSAGGDPDDKPPKIEWKPIEYSFYLPNGWMISDEIWVFPDNGAILISIEIMPSAGGSAGGSAGGS [r10_881_TrROS] , please.
3.37

Which folding stability dG unfold reading was recorded for the sequence SMKPGDKLLIRIRLPPVKVEREYFDKDGKLVKKETKEVKEVELVIELSPEELEKLRELLKELGFEVEILPSA [r9_167_TrROS_Hall] ?
2.5

Reported folding stability dG unfold for SAGGSAGGSAGGEKTIRITVKNENGETLEIEVSEEDAEELLKALEDAGISLEEITRIEPVSAGGSAGGSAGG [r7_745_TrROS_Hall] : what is it?
1.8

Which folding stability dG unfold is listed for SAGGSAGGSAGGGPDAVRQFPPPVNLSVEVTSYTSPSSSLSNGKPEKSTFTTLNPTAGVSAGGSAGGSAGGS [r10_877_JUSTAS] ?
0.139

Any idea what its folding stability dG unfold is? The sequence is SAGDNNKKPKYVYIPITINVPLPPGQTHEEAVDEVRLIMEELFPPGFKISEVKVHPEYNTVTVWIQIRSAGG [r19_81_TrROS]
2.22

Entry under review: SAGSAEEIAKKLAEELRKAGYEVKVKVVEVEKVGDGKVVVRVEIEVTYYDKNGKPVKKERFELTIVLPSAGG [r19_418_TrROS_Hall] . Reported folding stability dG unfold?
4.25

Request the reported folding stability dG unfold associated with SGFTVEVEVEYYPETGVLEVTVTTDGSSEQLIRDVADFIKEAGLDFVIESVEVEESGEVTTITLKLYVPPSA [r9_164_TrMRF]
3.78

Where do the numbers come from? From the supplement of paper PMC12764529.
